Below: a set of entries, each annotated with reported yeast fitness.
B1: tRNA (parent)
chain: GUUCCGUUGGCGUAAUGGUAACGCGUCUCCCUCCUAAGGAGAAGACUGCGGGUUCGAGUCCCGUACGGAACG

- Variants of: B1
- experiment-description: yeast fitness relative to wild type (ratio to wild type); higher = fitter; tRNA-Arg(CCU), competitive growth, 37 C, YPD
Variants at the floor of the assay were thinned out.
Number only, no unit.

>  <mutant-id>
U3A A20C A21G

>  <yeast fitness>
0.679

$$$$
>  <mutant-id>
U3C A45U U64C

>  <yeast fitness>
0.709

$$$$
>  <mutant-id>
A14U A69U

>  <yeast fitness>
0.702

$$$$

# next variant below
Supply yeast fitness value. Item: C30G A36G 0.679
